Measured Ratio Ki accompanies every entry in the list below.
Species on record: Rattus norvegicus
procedure.summary: Selectivity ratio of Ki for adenosine A1 receptor in rat brain cortical membrane to Ki for adenosine A2A receptor in rat brain striatal membrane
Type: cell membranes
readout.kind: Ratio Ki

INSERT INTO measurements (compound, readout_kind, relational_operator, observed_result) VALUES
  ('CC(=O)O[C@H]1CC[C@H](N2CCCn3c2nc2c3c(=O)n(C)c(=O)n2C)CC1', 'Ratio Ki', '>', 2),
  ('CC(C1CCCCC1)N1CCCn2c1nc1c2c(=O)n(C)c(=O)n1C (racemic)', 'Ratio Ki', '=', 6),
  ('Cn1c(=O)c2c(nc3n2CCN3C2CCCCC2)n(C)c1=O', 'Ratio Ki', '>', 4),
  ('CC1CCCCC1N1CCCCn2c1nc1c2c(=O)n(C)c(=O)n1C (mixture of isomers)', 'Ratio Ki', '>', 7),
  ('Cn1c(=O)c2c(nc3n2CCCN3[C@H]2CC[C@H](O)CC2)n(C)c1=O', 'Ratio Ki', '>', 3),
  ('Cn1c(=O)c2c(nc3n2CCCCN3CCC2=CCCCC2)n(C)c1=O', 'Ratio Ki', '=', 1),
  ('C[C@@H](C1CCCCC1)N1CCCn2c1nc1c2c(=O)n(C)c(=O)n1C', 'Ratio Ki', '=', 13),
  ('Cn1c(=O)c2c(nc3n2CCCCN3C2CCCCC2)n(C)c1=O', 'Ratio Ki', '=', 1),
  ('Cn1c(=O)c2c(nc3n2CCCN3CC2CC2)n(C)c1=O', 'Ratio Ki', '=', 2),
  ('Cn1c(=O)c2c(nc3n2CCCCN3CC2CCCCC2)n(C)c1=O', 'Ratio Ki', '=', 1),
  ('Cn1c(=O)c2c(nc3n2CCN3C2CCCCCCC2)n(C)c1=O', 'Ratio Ki', '>', 76),
  ('Cn1c(=O)c2c(nc3n2CCCN3C2CCCCCC2)n(C)c1=O', 'Ratio Ki', '=', 4),
  ('Cn1c(=O)c2c(nc3n2CCN3C2CCCC2)n(C)c1=O', 'Ratio Ki', '=', 8),
  ('Cn1c(=O)c2c(nc3n2CCCN3C23CC4CC(CC(C4)C2)C3)n(C)c1=O', 'Ratio Ki', '=', 1),
  ('Cn1c(=O)c2c(nc3n2CCCN3C2CCC(O)CC2)n(C)c1=O (mixture of isomers)', 'Ratio Ki', '>', 12),
  ('Cn1c(=O)c2c(nc3n2CCCN3CCC2=CCCCC2)n(C)c1=O', 'Ratio Ki', '=', 44);

The reported numbers originate from ChEMBL document CHEMBL2150901.
